measurement-target: MMP-13 (Homo sapiens, UniProt P45452)
assay-protocol: MMP-13 inhibition (thiopeptide or fluorescent peptide substrate)
Assay type: biochemical
setup-conditions: read-out: MMP13 IC50
Where a name gives a salt, the structure may show the parent alone.
attribute-measured: pIC50
pIC50 is a log-scale quantity: -log10 of the concentration expressed in molar.

Query: Name the recorded pIC50 of the molecule listed here: CC#CCOc1ccc(S(=O)(=O)C2(C(=O)NO)CCN(Cc3ccc(Br)cc3)CC2)cc1
Reply: 6.81

Query: Name the recorded pIC50 of the molecule listed here: CC#CCOc1ccc(S(=O)(=O)C2(C(=O)NO)CCN(Cc3ccc(C(=O)O)cc3)CC2)cc1 [Example 78, hydrochloride]
Reply: 7.13

Query: Name the recorded pIC50 of the molecule listed here: CC#CCOc1ccc(S(=O)(=O)CC2(C(=O)NO)CCOCC2)cc1
Reply: 7.01

Query: Name the recorded pIC50 of the molecule listed here: CC#CCOc1ccc([S+]([O-])CC2(C(=O)NO)CCOCC2)cc1 (centres unmarked)
Reply: 5.88
